Taken from the supplement of paper PMC10307832.

# Test system: HCC-44
# measurement-protocol: relative viability (nuclei count vs DMSO), 5 days (fraction); higher = more cells survive
# measurement-conditions: first compound 4 µM
relative viability reference
Lab note: write the figure by itself, no unit.

The examples below pair each entry with its known result.
Fill in: relative viability on HCC-44, entry C[C@@H]1CN(CC(=O)Nc2ccc3c(c2)Cc2cccc(-c4cc(=O)cc(N5CCOCC5)o4)c2S3)C[C@H](C)O1 + CC(=O)c1c(C)c2cnc(Nc3ccc(N4CCNCC4)cn3)nc2n(C2CCCC2)c1=O [Palbociclib] (partner 0.5 µM)
0.919

Fill in: relative viability on HCC-44, entry COc1cc(N2CCC(C(N)=O)CC2)ccc1Nc1nc(N)c(Cl)c(Nc2ccccc2S(=O)(=O)C(C)C)n1 [HG-5-88-01] + CC(=O)c1c(C)c2cnc(Nc3ccc(N4CCNCC4)cn3)nc2n(C2CCCC2)c1=O [Palbociclib] (partner 0.5 µM)
0.943

Others:
Fill in: relative viability on HCC-44, entry COc1cc(N2CCC(C(N)=O)CC2)ccc1Nc1nc(N)c(Cl)c(Nc2ccccc2S(=O)(=O)C(C)C)n1 [HG-5-88-01] + C[C@]1(O)C[C@@H](c2nc(-c3ccc4ccc(-c5ccccc5)nc4c3)c3c(N)nccn32)C1 [Linsitinib] (partner 1 µM)
0.751

Fill in: relative viability on HCC-44, entry Clc1ccc(Nc2nnc(Cc3ccncc3)c3ccccc23)cc1 [Vatalanib] + COc1cccc2cc(-c3nc([C@H]4CC[C@H](C(=O)O)CC4)n4ncnc(N)c34)[nH]c12 [OSI-027] (partner 0.5 µM)
0.355

Fill in: relative viability on HCC-44, entry COc1cc(N2CCC(C(N)=O)CC2)ccc1Nc1nc(N)c(Cl)c(Nc2ccccc2S(=O)(=O)C(C)C)n1 [HG-5-88-01] + CC(=O)Nc1cccc(-n2c(=O)n(C3CC3)c(=O)c3c(Nc4ccc(I)cc4F)n(C)c(=O)c(C)c32)c1 [Trametinib] (partner 0.02 µM)
1.01

Fill in: relative viability on HCC-44, entry C[C@@H]1CN(CC(=O)Nc2ccc3c(c2)Cc2cccc(-c4cc(=O)cc(N5CCOCC5)o4)c2S3)C[C@H](C)O1 + CC(C)C[C@H](NC(=O)[C@H](Cc1ccccc1)NC(=O)c1cnccn1)B(O)O [Bortezomib] (partner 0.002 µM)
0.796
